- tested-target: Luciferin 4-monooxygenase (Photinus pyralis) (UniProt P08659)
- Sequence (P08659 whole entry, looked up): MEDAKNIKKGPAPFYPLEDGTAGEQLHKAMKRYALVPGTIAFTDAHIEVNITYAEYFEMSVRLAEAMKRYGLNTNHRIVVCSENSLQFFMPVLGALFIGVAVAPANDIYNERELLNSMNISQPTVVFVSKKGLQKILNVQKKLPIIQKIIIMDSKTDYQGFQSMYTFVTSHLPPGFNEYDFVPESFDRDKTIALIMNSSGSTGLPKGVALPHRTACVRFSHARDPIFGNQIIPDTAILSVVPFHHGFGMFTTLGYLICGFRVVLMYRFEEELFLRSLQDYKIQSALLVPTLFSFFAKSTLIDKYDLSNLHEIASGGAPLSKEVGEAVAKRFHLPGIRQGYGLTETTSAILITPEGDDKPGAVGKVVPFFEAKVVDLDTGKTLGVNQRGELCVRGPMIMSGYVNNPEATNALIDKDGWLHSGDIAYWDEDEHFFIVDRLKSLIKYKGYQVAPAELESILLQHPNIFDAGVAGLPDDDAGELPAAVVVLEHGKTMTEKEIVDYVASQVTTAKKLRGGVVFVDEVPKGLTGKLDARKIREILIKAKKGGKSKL
- test-description: Biochemical firefly luciferase enzyme assay for NPC (AID 624030); further: nearly all actives have a fitted effect of over 70% in size
- condition-set: purified P. pyralis luciferase, luminescence, 5 min; series mostly up to 58.6 µM
Inconclusive results are not listed. Activity calls are given as the source filed them. The call rests on the fitted dose curve; in most records, active means well fitted inhibition curve with a large enough effect; inconclusive means small, poorly fitted or top-dose-only effect; inactive means flat fitted curve, though single readings scatter.
Returns: one label drawn from active, inactive

For this molecule, state the assay outcome: `COc1ccccc1N1CCN(CCCNc2cc(=O)n(C)c(=O)n2C)CC1`
inactive

For this molecule, state the assay outcome: `O=C1NCC2(CCN(CCc3ccccc3)CC2)O1`
inactive

Can you look up the reported call for `CCCCCN(C)CCC(O)(P(=O)(O)O)P(=O)(O)O` for me?
inactive

Hi, sorry to bother you, what did the test record for `CC(C)OC(=O)C(C)(C)Oc1ccc(C(=O)c2ccc(Cl)cc2)cc1` ?
inactive

What was the test verdict on CC(C)(C)c1ccc(C(O)CCCN2CCC(C(O)(c3ccccc3)c3ccccc3)CC2)cc1 (stereo not given) ?
inactive

What did this assay record as the result for CC(C)NCC(O)COc1cccc2[nH]ccc12 (stereo not given) ?
inactive

Answer briefly: the call reported for `COc1cc2ncnc(Nc3ccc(F)c(Cl)c3)c2cc1OCCCN1CCOCC1` in this assay.
inactive

Dear all, I need the recorded test outcome for `COc1ccc(Cc2nccc3cc(OC)c(OC)cc23)cc1OC` , thank you.
inactive

# outcome recorded in this test, key = `O=c1[nH]cnc2c1ncn2[C@H]1CC[C@@H](CO)O1`
inactive

What did the test return for `CC1(C)O[C@H]2C[C@@H]3[C@H]4CCC5=CC(=O)C=C[C@]5(C)[C@@]4(F)[C@@H](O)C[C@]3(C)[C@]2(C(=O)CO)O1` ?
inactive

Hi, sorry to bother you, what did the test record for `O=C1NC(=O)C(c2ccccc2)(c2ccccc2)N1` ?
inactive

So what was the verdict on `CC(=O)CCCCn1c(=O)c2c(ncn2C)n(C)c1=O` in this test?
inactive

Name the outcome recorded for `CC/C(=C(\c1ccccc1)c1ccc(OCCN(C)C)cc1)c1ccccc1` in the assay.
inactive

What is the recorded call for this molecule in the test? `O=C(O)c1cc(-c2ccccc2)nc2ccccc12`
active

What classification did `CCn1cc(C(=O)O)c(=O)c2ccc(C)nc21` end up with in this test?
inactive

Would you mind telling me which call this test gave CN1[C@@H]2CCC[C@@H]1CC(NC(=O)c1nn(C)c3ccccc13)C2 (stereo not given in full) ?
inactive

Look up the recorded call for `C[N+](C)(C)CCCCCC[N+](C)(C)C` in this test.
inactive

Hello, I am checking results. What call was entered for CC(=O)Oc1cc2c(s1)CCN(C(C(=O)C1CC1)c1ccccc1F)C2 (stereo not given) ?
inactive

Hey, what did the test say about `CC(=O)O[C@]1(C(C)=O)CC[C@H]2[C@@H]3C=C(Cl)C4=CC(=O)[C@@H]5C[C@@H]5[C@]4(C)[C@H]3CC[C@@]21C` ?
inactive

Any idea what this test logged for Clc1ccc(COC(Cn2ccnc2)c2ccc(Cl)cc2Cl)cc1 (stereo not given) ?
inactive

How did this test come out for `NCCS` ?
inactive

Which outcome was entered for the molecule `O=C(NCCN1CCOCC1)c1ccc(Cl)cc1` in this test?
inactive

Tell me the recorded outcome of this test for `CCN1CCC[C@H]1CNC(=O)c1cc(S(N)(=O)=O)ccc1OC` .
inactive

What is the recorded call for this molecule in the test? Cc1cccc(C)c1OCC(C)N (stereo not given)
inactive

I'd appreciate the recorded outcome for `Clc1ccc(Cn2c(CN3CCCC3)nc3ccccc32)cc1` from this test.
inactive
